Data provenance: patent US9511134B2

Molecular target: DRB1*0404 (Homo sapiens, UniProt P01903+P01911, A100R/A169T/F76Y/I96L/K127E/L162R/M171V/N62H/P40V/Q125Y/R42H/S133A/S149N/S66Y/V209L/W38E)
Assay: biochemical
Assay type: binding
Conditions: IC50 nM to purified HLA DRB1*0404
Where no end group is shown, it is not given here.
quantity.kind: IC50 (nM)
Write the answer as a number in nM, unit excluded.

Looking up PVHFRNQVKIRRRVD [Flu.PB2.135] , I see its IC50 listed as 5980

Value of measured IC50 for the entry LILYDKEEIRRIWRQ [Flu.NP.111] : 262

Sure, the documented IC50 for ALQLLFEVEQEIRTF [Flu.NS2.178] is 2150
